Would you kindly list growth for each of these compounds?
Tested on: HCT-15 colon
assay: NCI-60 one-dose screen, 48 h (100 = growth as untreated, 0 = no growth, -100 = all killed)
settings: 10 µM unless noted
This is part of a sample that, as a whole, favours compounds with a hit. Of some 83,000 tested, about 20% had one in any assay. Calls of active or inactive are those of the source. How the source made its calls: active means growth percent below 10; inactive means the rest.

* O=C(Nc1nc(-c2ccccc2)cc(-c2ccc(Cl)cc2)n1)c1ccncc1 | 104% (inactive)

Value sought for every listed compound: growth.
1. CCCCCCCCSC1=CC(=O)C(OC)=C(OC)C1=O
2. Cn1cc(-c2csc(-c3cn(C)c4ncccc34)n2)c2ccccc21
3. CCN(CC)CC(C)(C)C(=O)/C=C/c1ccccc1
4. COc1cccc(/C=C2/C(=O)N(Cc3ccco3)SC2=S)c1OC
5. O=c1ccc2cc3ccccc3cc2[nH]1
6. CC(C)n1cc2c(N)ncnc2n1

Response:
10.9% (inactive)
26.5% (inactive)
21.2% (inactive)
97.2% (inactive)
109% (inactive)
106% (inactive)
